Measured On: ABCB1 (P-glycoprotein, P-gp, MDR1) (Homo sapiens, UniProt P08183)
Sequence (P08183 whole entry): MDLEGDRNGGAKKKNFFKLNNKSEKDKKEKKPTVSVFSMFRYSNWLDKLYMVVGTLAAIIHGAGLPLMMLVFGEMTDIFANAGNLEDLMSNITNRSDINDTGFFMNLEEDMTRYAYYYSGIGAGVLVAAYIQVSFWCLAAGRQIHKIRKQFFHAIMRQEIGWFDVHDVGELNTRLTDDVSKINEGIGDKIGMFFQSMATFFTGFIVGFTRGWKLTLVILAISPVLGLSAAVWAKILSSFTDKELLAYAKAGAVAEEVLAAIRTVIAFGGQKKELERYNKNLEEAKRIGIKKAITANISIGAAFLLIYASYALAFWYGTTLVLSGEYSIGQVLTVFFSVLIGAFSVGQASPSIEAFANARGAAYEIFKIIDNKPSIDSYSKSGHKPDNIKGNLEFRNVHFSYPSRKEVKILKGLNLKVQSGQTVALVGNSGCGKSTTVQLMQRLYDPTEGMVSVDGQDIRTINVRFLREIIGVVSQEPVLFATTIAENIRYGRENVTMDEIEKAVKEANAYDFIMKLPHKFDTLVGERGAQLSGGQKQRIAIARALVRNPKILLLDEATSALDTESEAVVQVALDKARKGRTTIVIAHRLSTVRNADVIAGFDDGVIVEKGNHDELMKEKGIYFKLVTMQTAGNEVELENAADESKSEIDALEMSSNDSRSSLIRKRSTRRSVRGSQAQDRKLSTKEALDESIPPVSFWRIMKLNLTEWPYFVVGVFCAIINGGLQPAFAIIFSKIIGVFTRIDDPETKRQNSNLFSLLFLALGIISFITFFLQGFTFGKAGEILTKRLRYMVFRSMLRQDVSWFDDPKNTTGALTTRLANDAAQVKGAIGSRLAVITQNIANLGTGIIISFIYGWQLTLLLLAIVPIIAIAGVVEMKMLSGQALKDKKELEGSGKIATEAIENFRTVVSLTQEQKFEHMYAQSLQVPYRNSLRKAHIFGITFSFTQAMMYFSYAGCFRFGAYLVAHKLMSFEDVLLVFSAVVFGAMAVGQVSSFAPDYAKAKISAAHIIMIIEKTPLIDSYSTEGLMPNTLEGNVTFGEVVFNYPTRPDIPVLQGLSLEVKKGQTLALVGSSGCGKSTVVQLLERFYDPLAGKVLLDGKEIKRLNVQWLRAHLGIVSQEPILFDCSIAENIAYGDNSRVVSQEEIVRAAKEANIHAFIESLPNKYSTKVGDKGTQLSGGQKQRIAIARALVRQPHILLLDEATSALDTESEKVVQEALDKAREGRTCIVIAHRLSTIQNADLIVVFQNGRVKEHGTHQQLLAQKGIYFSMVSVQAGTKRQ
Assay Overview: cell-based
Measure: IC50

Compound: C=CC(=O)Nc1cc(Nc2nccc(-c3cn(C4CC4)c4ccccc34)n2)c(OC)cc1N(C)CCN(C)C [almonertinib]
Assay Value: ~2 µM

Data origin, for the record: paper PMC8291035
